# study_target: purified recombinant human PDE9 (Homo sapiens, UniProt O76083)
# Construct: FLAG; made in house; host or cells: baculovirus/Sf9
# Sequence (O76083 whole entry): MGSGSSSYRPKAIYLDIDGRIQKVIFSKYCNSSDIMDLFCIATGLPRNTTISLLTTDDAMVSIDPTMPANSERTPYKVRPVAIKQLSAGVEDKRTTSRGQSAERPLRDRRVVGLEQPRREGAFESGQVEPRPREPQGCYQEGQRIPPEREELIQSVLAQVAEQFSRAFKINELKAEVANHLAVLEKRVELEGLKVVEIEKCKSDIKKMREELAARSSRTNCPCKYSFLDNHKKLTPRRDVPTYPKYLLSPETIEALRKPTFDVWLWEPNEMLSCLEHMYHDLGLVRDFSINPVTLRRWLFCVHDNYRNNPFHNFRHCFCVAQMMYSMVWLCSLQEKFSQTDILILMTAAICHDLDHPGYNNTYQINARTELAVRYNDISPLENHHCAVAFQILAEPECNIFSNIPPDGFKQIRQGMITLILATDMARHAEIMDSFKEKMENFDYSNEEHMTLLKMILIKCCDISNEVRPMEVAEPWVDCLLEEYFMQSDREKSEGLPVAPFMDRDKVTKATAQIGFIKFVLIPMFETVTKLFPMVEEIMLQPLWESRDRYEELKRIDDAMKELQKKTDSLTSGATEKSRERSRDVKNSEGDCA
# method: PDE9 enzyme inhibition scintillation proximity assay ([3H]cGMP hydrolysis)
# Type: biochemical
# condition_description: read-out: IC50 against PDE9
assay_endpoint: IC50
The answer consists of two parts: a number and, after it, its unit.

# example entries with known answers
record_smiles: O=c1[nH]c(Cc2ccccc2OCc2ccccc2)nc2c(C3CCCC3)n[nH]c12
study_target: purified recombinant human PDE9 (Homo sapiens, UniProt O76083)
assay_endpoint: IC50
readout_value: 143 nM
//
record_smiles: CC(C)c1n[nH]c2c(=O)[nH]c(Cc3ccccc3Oc3ccccc3)nc12
study_target: purified recombinant human PDE9 (Homo sapiens, UniProt O76083)
assay_endpoint: IC50
readout_value: 126 nM

Let us move to another entry and its IC50.
Respond only with IC50 recorded for O=c1[nH]c(Cc2ccccc2OC(F)(F)F)nc2c(-c3cccnc3)n[nH]c12 141 nM
